- ASSAYED TARGET: Y4R
- EXPERIMENT NOTES: cell-based or functional assay
*1 amine or outer side, *2 acyl side, *3 side chain or, on linkers, in order; H or OH if unused. [ ]: non-standard residue; d: D form. Pqa = N-piperazin-1-yl-4(3H)-quinazolinone-3-acetic acid, O=C(Cn1cnc2ccc(N3CCN([*:1])CC3)cc2c1=O)[*:2]; 4‑MeOApc = not defined here; Nle = CCCC[C@H](N)C(=O)O
EXPERIMENTAL ENDPOINT: Y4R EC50(nM) FLIPR

Quick note, Y4R EC50(nM) FLIPR for H-IK[Pqa]RHYLALVTRQRY-NH2 (SMILES CC[C@H](C)[C@H](N)C(=O)N[C@@H](CCCCN)C(=O)N1CCN(c2ccc3ncn(CC(=O)N[C@@H](CCCNC(=N)N)C(=O)N[C@@H](Cc4c[nH]cn4)C(=O)N[C@@H](Cc4ccc(O)cc4)C(=O)N[C@@H](CC(C)C)C(=O)N[C@@H](C)C(=O)N[C@@H](CC(C)C)C(=O)N[C@H](C(=O)N[C@H](C(=O)N[C@@H](CCCNC(=N)N)C(=O)N[C@@H](CCC(N)=O)C(=O)N[C@@H](CCCNC(=N)N)C(=O)N[C@@H](Cc4ccc(O)cc4)C(N)=O)[C@@H](C)O)C(C)C)c(=O)c3c2)CC1) [H-Ile-Lys-Pqa-Arg-His-Tyr-Leu-Ala-Leu-Val-Thr-Arg-Gln-Arg-Tyr-NH2] landed at > 5000 nM

Entry Ac-I[Nle][Pqa]R[4‑MeOApc]YLNLVTRQRY-NH2 (reading uncertain) [Ac-Ile-Nle-Pqa-Arg-(4-MeOApc)-Tyr-Leu-Asn-Leu-Val-Thr-Arg-Gln-Arg-Tyr-NH2] , Y4R EC50(nM) FLIPR reported as > 5000 nM

Lab note: IKRHYLNLVTRQRY ((D)His at PYY position 26 (residue 2 of the second part); Pqa moiety between the two parts; C-terminal amide) [H-Ile-Lys-Pqa-Arg-(D)His-Tyr-Leu-Asn-Leu-Val-Thr-Arg-Gln-Arg-Tyr-NH2] gave Y4R EC50(nM) FLIPR of > 5000 nM

Origin of values: patent US7410949
